src = ChEMBL document CHEMBL4330068

Please respond with reported viability at 48 h, 10 µM for every item in the list.
Test Details: Cytotoxicity against human SH-SY5Y cells assessed as cell viability at 10 uM after 48 hrs by MTT assay (reference value: 100%)
Assay type: cell-based
Study Conditions: read-out: Activity
A bare number is not enough; add the unit after it.

QUERY: Assign viability at 48 h, 10 µM to the following record: C#CCNCc1ccc(CN2C3C4C5CC6C7C5C3C7C2(O)C64)cc1 (centres undefined)
RESULT: 98%

QUERY: Assign viability at 48 h, 10 µM to the following record: NCc1ccc(CN2C3C4C5CC6C7C5C3C7C2(O)C64)cc1 (centres undefined)
RESULT: 107%

QUERY: Assign viability at 48 h, 10 µM to the following record: Nc1ccc(CN2C3C4C5CC6C7C5C3C7C2(O)C64)cc1 (centres undefined)
RESULT: 101%

QUERY: Assign viability at 48 h, 10 µM to the following record: c1ccc(CNC23OC4C5C6CC(C7C6C4C72)C53)cc1 (centres undefined)
RESULT: 86%
